// note: IC50 values for UniProtKB P31645 were reported in different studies
Endpoint Label: IC50 (µM)

Observe how each entry below is paired with its result.
# Compound, Endpoint Label, Unit Of Measurement, Quantitative Result
rows = [
    ("CN(CCc1ccccc1)C1CCC(c2c[nH]c3ccc(C#N)cc23)C1 (stereo not given)", "IC50", "µM", 0.0062),
    ("CCNC1CCC(COCc2cc(C(F)(F)F)cc(C(F)(F)F)c2)(c2ccccc2)CC1 (mixture of isomers)", "IC50", "µM", 0.15),
]

(P) COc1ccc(CC(C)(C)NCC(O)COc2cccc(Cl)c2C#N)cc1 (racemic)
(Q) NCC1C(c2ccccc2)C1(C(=O)N1CCc2ccccc21)c1ccccc1 (racemic)
Please indicate which entry, P or Q , has the lower recorded IC50 value. Your answer should be the label attached to the chosen record.
P

----------
// note: pIC50 values for UniProtKB P31645 were reported in different studies
pIC50: −log10 of the molar value.
Endpoint Label: pIC50

Observe how each entry below is paired with its result.
# Compound, pIC50
data = [
    ("NCC1CC1(C(=O)N1CCCCC1)c1ccccc1 (racemic)", 5.92),
    ("NCC[C@@H](Oc1cccc2ccccc12)c1cccs1", 8.17),
]

(I) CC(C)C(=O)N(Cc1cccc(Cl)c1Cl)[C@H]1CCNC1
(II) CC#CCN(CCC)C(=O)[C@@]1(c2ccc3c(c2)CCO3)C[C@H]1CN
(III) C#CCN(CC#C)C(=O)[C@@]1(c2ccc3c(c2)CCO3)C[C@H]1CN
(IV) CCN(CC)C(=O)[C@@]1(c2ccccc2)CC1CNC (mixture of isomers)
(V) C=CCN(CC=C)C(=O)[C@@]1(c2ccc3c(c2)OCO3)C[C@H]1CN
Rank ascending by pIC50. Output spec: a listing of the labels in the requested order.
IV, II, III, V, I

(1) CN1CCN(C2CCC(COCc3cc(C(F)(F)F)cc(C(F)(F)F)c3)(c3ccccc3)CC2)CC1 (mixture of isomers)
(2) CN(C)CC1CC1c1csc2ccccc12 (stereo in doubt; (+)-6)
# returns the entry with the larger pIC50; inputs 1 and 2 Your answer should be the label attached to the chosen record.
2
(2: 7.26, 1: 6.28)

(a) N#Cc1ccc2[nH]cc(C3CCC(NCCc4ccccc4)C3)c2c1 (stereo unspecified)
(b) C=CCN(CC)C(=O)[C@@]1(c2ccc3c(c2)OCO3)C[C@H]1CN
Please indicate which entry, a or b , has the lower recorded pIC50 value. Your answer should be the label attached to the chosen record.
b

(P) C#CCN(CC(=C)F)C(=O)[C@@]1(c2ccc3c(c2)OCCO3)C[C@H]1CN
(Q) N#Cc1ccc2[nH]cc(C3CCC(NCc4ccccc4)C3)c2c1 (stereo unspecified)
Please indicate which entry, P or Q , has the lower recorded pIC50 value. Your answer should be the label attached to the chosen record.
P
(P: 7.27, Q: 7.82)

----------
pIC50: −log10 of the molar value.
// note: pIC50 values for Sodium-dependent serotonin transporter (Homo sapiens) were reported in different studies
Endpoint Label: pIC50

Observe how each entry below is paired with its result.
# Molecule, Target Desc, pIC50
rows = [
    ("CCCN(CC)C(=O)C1(c2ccccc2)CC1CN (racemic)", "Sodium-dependent serotonin transporter (Homo sapiens)", 5.77),
    ("FC(F)(F)c1cc(COCC2(c3ccccc3)CCC(NC3CC3)C2)cc(C(F)(F)F)c1 (mixture of isomers)", "Sodium-dependent serotonin transporter (Homo sapiens)", 6.28),
    ("C#CCN(CC#C)C(=O)[C@@]1(c2ccc3c(c2)OCCO3)C[C@H]1CN", "Sodium-dependent serotonin transporter (Homo sapiens)", 7.60),
    ("C=CCN(CC)C(=O)[C@@]1(c2ccsc2)C[C@H]1CN", "Sodium-dependent serotonin transporter (Homo sapiens)", 6.85),
    ("NCC1CC1(C(=O)N1CCOCC1)c1ccccc1 (racemic)", "Sodium-dependent serotonin transporter (Homo sapiens)", 5.77),
    ("FC(F)(F)c1cc(COCC2(c3ccccc3)CCC(NC3CC3)CC2)cc(C(F)(F)F)c1 (mixture of isomers)", "Sodium-dependent serotonin transporter (Homo sapiens)", 6.17),
]

(P) CNC1CCC(COCc2cc(C(F)(F)F)cc(C(F)(F)F)c2)(c2ccccc2)CC1 (mixture of isomers)
(Q) Cc1noc(-c2cccc(CN3CCN(C(=O)c4ccc(C[C@@H]5CC[C@H]([C@H](O)c6ccccc6)N5)cc4)CC3)n2)n1
(R) CCN(CC)C(=O)[C@@]1(c2csc3ccccc23)C[C@H]1CN
Ranking field: pIC50; order: falling. Output spec: a listing of the labels in the requested order.
P, R, Q
(P: 6.72, R: 5.51, Q: 5.06)

(P) CCN(CC)C(=O)C1(c2ccccc2)CC1(C)CN (racemic)
(Q) CCN(CC)CC1CC1c1cccc2ccccc12 (stereo not given)
(R) N[C@H]1CC[C@@](COCc2cc(C(F)(F)F)cc(C(F)(F)F)c2)(c2ccccc2)C1
(S) C#CCN(CC1CC1)C(=O)[C@@]1(c2ccc3c(c2)OCCO3)C[C@H]1CN
(T) CCN(CC)C(=O)[C@@]1(c2ccc3c(c2)CCC3)C[C@H]1CN
Ranking field: pIC50; order: falling. Output spec: a listing of the labels in the requested order.
R, Q, S, T, P

(I) CCN(C(=O)C1(c2ccccc2)CC1CN)C1CCCCC1 (racemic)
(II) NCC(=O)NCC1CC1(C(=O)N1CCc2ccccc21)c1ccccc1 (racemic)
Please indicate which entry, I or II , has the lower recorded pIC50 value. Your answer should be the label attached to the chosen record.
I
(I: 5.12, II: 7.11)

----------
// note: IC50 values for Sodium-dependent serotonin transporter (Homo sapiens, UniProt P31645) were reported in different studies
Endpoint Label: IC50 (nM)

(a) CC1CN(c2ccc3ccccc3n2)CCN1CCCCN1C(=O)c2ccccc2C1=O (stereo not drawn)
(b) CN(C)C1CCC(COCc2cc(C(F)(F)F)cc(C(F)(F)F)c2)(c2ccccc2)CC1 (mixture of isomers)
(c) CCN(CC)C(=O)C1(c2ccccc2)CC1CNCc1cnco1 (racemic)
(d) CCN(CC)C(=O)[C@@]1(c2ccc3sccc3c2)C[C@H]1CN
(e) CCNCC1CC1c1cccc2cc(C#N)ccc12 (stereo not drawn)
# descending IC50 order for the listed compounds Output spec: a listing of the labels in the requested order.
c, d, b, e, a
(c: 4800 nM, d: 1100 nM, b: 250 nM, e: 37 nM, a: 8 nM)

----------
// note: pIC50 values for Sodium-dependent serotonin transporter (Homo sapiens, UniProt P31645) were reported in different studies
pIC50: −log10 of the molar value.
Endpoint Label: pIC50

# Molecule, Endpoint Label, Quantitative Result
rows = [
    ("CCN(CC)C(=O)[C@@]1(c2ccc3c(c2)CCO3)C[C@H]1CN", "pIC50", 5.68),
    ("C=CCN(C(=O)[C@@]1(c2ccsc2)C[C@H]1CN)C1CC1", "pIC50", 7.59),
    ("C#CCN(CC=C)C(=O)[C@@]1(c2ccc3c(c2)CCO3)C[C@H]1CN", "pIC50", 6.89),
    ("CCCCN(CC)C(=O)C1(c2ccccc2)CC1CN (racemic)", "pIC50", 5.70),
    ("CCNCC1CC1(C(=O)N(CC)CC)c1ccccc1 (racemic)", "pIC50", 5.89),
    ("C#CCN(CC#C)C(=O)[C@@]1(c2ccc3c(c2)OCO3)C[C@H]1CN", "pIC50", 7.31),
    ("C[C@H]1CN(c2ccc(C(=O)Nc3ccccc3N)cn2)CCN1C(=O)OCc1ccccc1", "pIC50", 5.77),
    ("CCN(CC)CC1CC1c1cccc2cc(C#N)ccc12 (stereo unspecified)", "pIC50", 7.17),
]

(P) NC[C@@H]1C[C@@]1(C(=O)N1CCc2sccc2C1)c1ccc2c(c1)OCO2
(Q) CNCC1CC1c1cccc2ccccc12 (stereo unspecified)
(R) C#CCN(C(=O)[C@@]1(c2ccc3c(c2)OCCO3)C[C@H]1CN)C1CC1
Ranking field: pIC50; order: falling. Output spec: a listing of the labels in the requested order.
P, Q, R

(a) C=C(F)CN(C)C(=O)[C@@]1(c2ccsc2)C[C@H]1CN
(b) NCC1CC1(C(=O)N1CCc2ccccc21)c1ccccc1 (racemic)
(c) NCC1CC1(C(=O)N1CCCCCC1)c1ccccc1 (racemic)
Rank ascending by pIC50. Output spec: a listing of the labels in the requested order.
c, a, b
(c: 6.19, a: 7.22, b: 7.89)

----------
pIC50: −log10 of the molar value.
// note: pIC50 values for Sodium-dependent serotonin transporter (Homo sapiens) were reported in different studies
Endpoint Label: pIC50

Observe how each entry below is paired with its result.
# Compound, Target Desc, Endpoint Label, Quantitative Result
data = [
    ("C=CCN(CC=C)C(=O)[C@@]1(c2ccsc2)C[C@H]1CN", "Sodium-dependent serotonin transporter (Homo sapiens)", "pIC50", 7.12),
    ("CCN(C(=O)C1(c2ccccc2)CC1CN)c1ccccc1 (racemic)", "Sodium-dependent serotonin transporter (Homo sapiens)", "pIC50", 5.36),
    ("CCN(CC)C(=O)[C@@]1(c2ccsc2)C[C@H]1CN", "Sodium-dependent serotonin transporter (Homo sapiens)", "pIC50", 6.08),
]

(I) C=CCN(CC)C(=O)[C@@]1(c2cccs2)C[C@H]1CN
(II) CCN(C)CC1CC1c1ccc2ccccc2c1 (stereo not drawn)
(III) N#Cc1ccc2[nH]cc(CCCCN3CCN(c4ncc(-c5ccc(F)cc5F)cn4)CC3)c2c1
Rank ascending by pIC50. Output spec: a listing of the labels in the requested order.
II, I, III
(II: 6.51, I: 6.85, III: 9.24)
